# TARGET_OF_ASSAY: DRB1*07:01
# CONDITION_LABEL: modification not given
ASSAY_READOUT: IC50 (nM)
One number for each entry, in nM.

Provide measured IC50 value, entry: TWRVYSTGSNVFQTR [… (position 632)]
220
